Subject of test: T1, full-length untagged human GPNMB expressed on cells (human, UniProt Q14956 23-572)
T1 sequence: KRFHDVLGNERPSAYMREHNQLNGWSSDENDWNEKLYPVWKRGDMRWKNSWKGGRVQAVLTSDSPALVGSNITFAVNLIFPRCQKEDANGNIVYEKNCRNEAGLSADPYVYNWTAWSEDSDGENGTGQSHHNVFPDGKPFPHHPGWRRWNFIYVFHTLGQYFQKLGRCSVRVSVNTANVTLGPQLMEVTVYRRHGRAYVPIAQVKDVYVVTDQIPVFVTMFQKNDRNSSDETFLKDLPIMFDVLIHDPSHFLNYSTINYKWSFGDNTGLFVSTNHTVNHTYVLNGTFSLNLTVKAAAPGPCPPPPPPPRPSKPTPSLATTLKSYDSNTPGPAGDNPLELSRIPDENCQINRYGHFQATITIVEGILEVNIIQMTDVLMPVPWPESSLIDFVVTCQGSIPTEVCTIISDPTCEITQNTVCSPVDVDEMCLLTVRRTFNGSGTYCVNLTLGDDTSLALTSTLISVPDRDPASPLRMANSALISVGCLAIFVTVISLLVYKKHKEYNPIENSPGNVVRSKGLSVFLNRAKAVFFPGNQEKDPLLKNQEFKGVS
Assay protocol: cell-based or functional assay
Overview of recorded GCase (FoB) for various binders
Measurement type: GCase (FoB)

[
  {
    "Binder": "anti-GPNMB antibody GPN-37 (antibody, human IgG1, V domains shown, chimeric) VH: EVQLVESGGGLVQPGRSLKLSCAASGFTFSSKSGMAWVRQAPTKGLEWVASISNGGGDTYYRDSVKGRFTISRDNAKNTQYLQMDSLRPEDTATYYCARHRDYGYDAYFDYWGQGVMVTVSS VL: DIQMTQSPASLSASLGETVTIECLASEDIYSSLAWYQQKPGKSPQLLIYDASSLQDGVPSRFSGSESGTQYSLEINSLQSEDAATYFCQQHHDYPYTFGAGTKLELK",
    "Unit of measurement": "FoB",
    "Val": 1.01
  },
  {
    "Binder": "anti-GPNMB antibody GPN-48 (antibody, human IgG1, V domains shown, chimeric) VH: QVQLQQSGPELVKPGASVKLSCRASGYGFSSFWMNWVKQRPGKGLEWIGRIYPGKGDTLYNGKFKDKATLTADESSSTAYMQLSSLTSEDSAVYFCARSIYYYDYWYFDVWDTGTTVTVSS VL: DIVMTQSHKFMSTSVGDRVNITCKASQDVNSAIAWYQQKPGQSPKLLIYSASYRFIGVPDRFTGSGSGTGFTFTISSVQAEDLAVYYCQQHYTTPLTFGAGTKLELK",
    "Unit of measurement": "FoB",
    "Val": 1.02
  }
]
